For each record, write down the corresponding inhibition.
# Species on record: Homo sapiens
# method notes: Inhibition of […] urease using urea as substrate at 1 uM preincubated for 5 min before substrate addition measured after 10 min relative to control
Answers are plain numbers, in %.

Solved entries:
molecule=C=CCNC(=S)N/N=C1\C(=O)Nc2ccc([N+](=O)[O-])cc21 outcome_measure=inhibition display_unit=% recorded_value=12
molecule=COc1ccc(OC)c(NC(=S)N/N=C2\C(=O)Nc3ccc([N+](=O)[O-])cc32)c1 outcome_measure=inhibition display_unit=% recorded_value=15.6
molecule=CCCCCCNC(=S)N/N=C1\C(=O)Nc2ccc([N+](=O)[O-])cc21 outcome_measure=inhibition display_unit=% recorded_value=37
molecule=Cc1cccc(NC(=S)N/N=C2\C(=O)Nc3ccc([N+](=O)[O-])cc32)c1 outcome_measure=inhibition display_unit=% recorded_value=13.9

Give inhibition for each listed item.
1. O=C1Nc2ccc([N+](=O)[O-])cc2/C1=N/NC(=S)Nc1ccccc1
2. NC(N)=S [THIOUREA]
3. COc1ccc(NC(=S)N/N=C2\C(=O)Nc3ccc([N+](=O)[O-])cc32)c(OC)c1
4. COc1ccc(NC(=S)N/N=C2\C(=O)Nc3ccc([N+](=O)[O-])cc32)cc1
5. N#Cc1cccc(NC(=S)N/N=C2\C(=O)Nc3ccc([N+](=O)[O-])cc32)c1
6. O=C1Nc2ccc([N+](=O)[O-])cc2/C1=N/NC(=S)Nc1ccc(Br)cc1

Out:
1: 0.65; 2: 20.9; 3: 61; 4: 33.6; 5: 1.8; 6: 6.6
